- assay: IUF_NPC2a_radial_glia_migration_120hr: Leibniz Research Institute for Environmental Medicine (IUF) 120-hour Neural Progenitor Cell Migration Assay for Radial Glia Migration (NPC2a) (AID 2284298)
Calls of active or inactive are those of the source. How the source made its calls: active means hit-call score of the fitted dose curve at least 0.9, where 1 is the maximum; inactive means score below 0.9.
The categories you may choose from are active, inactive

Task: Assay result, entry O=[N+]([O-])/N=C1\NCCN1Cc1ccc(Cl)nc1 — outcome?
Output: inactive

Task: Assay result, entry CNC(=O)CSP(=S)(OC)OC — outcome?
Output: inactive

Task: Assay result, entry COP(=S)(OC)Oc1ccc([N+](=O)[O-])cc1 — outcome?
Output: inactive

Task: Assay result, entry CCC(C)(C)C(=O)OC1=C(c2ccc(Cl)cc2Cl)C(=O)OC12CCCCC2 — outcome?
Output: inactive

Task: Assay result, entry CC[C@H](C)[C@H]1O[C@]2(C=C[C@@H]1C)C[C@@H]1C[C@@H](C/C=C(\C)[C@@H](O[C@H]3C[C@H](OC)[C@@H](O[C@H]4C[C@H](OC)[C@@H](O)[C@H](C)O4)[C@H](C)O3)[C@@H](C)/C=C/C=C3\CO[C@@H]4[C@H](O)C(C)=C[C@@H](C(=O)O1)[C@]34O)O2 (tested in a mixture with another compound) — outcome?
Output: active

Task: Assay result, entry CC(C)N(C(=O)COc1nnc(C(F)(F)F)s1)c1ccc(F)cc1 — outcome?
Output: inactive

====

- assay: ATG_NF_kB_CIS: Attagene CIS-FACTORIAL HepG2 Assay for human Nuclear Factor Kappa B (NF-kB) (AID 2282991)
- run parameters: HepG2 Attagene cis-factorial NF-kB reporter mRNA; actives raise or lower the signal
- Protocol: ATG_CIS is a cell-based, multiplexed-readout assay that uses HepG2, a human liver cell line, with measurements taken at 24 hours after chemical dosing in a 24-well plate.ATG_NF_kB_CIS is one of 52 assay component(s) measured or calculated from the ATG_CIS assay. […] This assay endpoint, ATG_NF_kB_CIS, was analyzed with bidirectional fitting relative to DMSO as the negative control and baseline of activity. […]
Calls of active or inactive are those of the source. How the source made its calls: active means hit-call score of the fitted dose curve at least 0.9, where 1 is the maximum; inactive means score below 0.9.
attribute measured: outcome

Task: Look up and report measured outcome for this entry: COP(=S)(OC)Oc1ccc(SC)c(C)c1
Output: inactive

Task: Look up and report measured outcome for this entry: N#Cc1c(Cl)c(Cl)c(Cl)c(C#N)c1Cl
Output: inactive

Task: Look up and report measured outcome for this entry: COc1nn(CSP(=S)(OC)OC)c(=O)s1
Output: inactive

====

- assay: CCTE_Mundy_HCI_Cortical_Synap_Neur_Matur_NeuriteCount: CCTE's Synaptogenesis and Neurite Maturation Assay in rat cortical cells for Neurite Count, Mundy Lab (AID 2284222);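 on outcome: exposure from day 7 to day 12 in vitro with readout at day 12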
Calls of active or inactive are those of the source. How the source made its calls: active means hit-call score of the fitted dose curve at least 0.9, where 1 is the maximum; inactive means score below 0.9.
The categories you may choose from are active, inactive

# count of solved cases: 5
Task: Assay result, entry CC1(c2ccc(Oc3ccccc3)cc2)OC(=O)N(Nc2ccccc2)C1=O (stereo not drawn) — outcome?
Output: active

Task: Assay result, entry O=[N+]([O-])/N=C1\NCCN1Cc1ccc(Cl)nc1 — outcome?
Output: inactive

Task: Assay result, entry CCC(C)(C)C(=O)OC1=C(c2ccc(Cl)cc2Cl)C(=O)OC12CCCCC2 — outcome?
Output: inactive

Task: Assay result, entry COP(=O)(OC)OC=C(Cl)Cl — outcome?
Output: inactive

Task: Assay result, entry CC(C)N(C(=O)COc1nnc(C(F)(F)F)s1)c1ccc(F)cc1 — outcome?
Output: inactive

***
Task: Assay result, entry O=C(O)C(F)(F)C(F)(F)C(F)(F)C(F)(F)C(F)(F)C(F)(F)C(F)(F)F — outcome?
Output: inactive

Task: Assay result, entry COP(=S)(OC)Oc1ccc([N+](=O)[O-])cc1 — outcome?
Output: inactive

Task: Assay result, entry CC[C@H](C)[C@H]1O[C@]2(C=C[C@@H]1C)C[C@@H]1C[C@@H](C/C=C(\C)[C@@H](O[C@H]3C[C@H](OC)[C@@H](O[C@H]4C[C@H](OC)[C@@H](O)[C@H](C)O4)[C@H](C)O3)[C@@H](C)/C=C/C=C3\CO[C@@H]4[C@H](O)C(C)=C[C@@H](C(=O)O1)[C@]34O)O2 (tested in a mixture with another compound) — outcome?
Output: active

====

- Test system: frog Estrogen Receptor (ESR2), gene 100174814
- assay: ATG_frER2_XSP1: Attagene TRANS-FACTORIAL Multi-Species (XSP1) HepG2 Assay for frog Estrogen Receptor (ESR2) (AID 2283774)
Records with an inconclusive call do not appear. Activity calls are given as the source filed them. Rule for the calls: active = hit-call score of the fitted dose curve at least 0.9, where 1 is the maximum; inconclusive = response in the unintended direction; inactive = score below 0.9.
Would you mind telling me the reported AC50 of each entry?

Observe how each entry below is paired with its result.
Task: Please tell me the measured AC50 for Oc1cc(Cl)ccc1Oc1ccc(Cl)cc1Cl ; system: frog Estrogen Receptor (ESR2), gene 100174814.
Output: 7.05 µM (active)

Task: Please tell me the measured AC50 for CCCN(CCC)c1c([N+](=O)[O-])cc(C(F)(F)F)cc1[N+](=O)[O-] ; system: frog Estrogen Receptor (ESR2), gene 100174814.
Output: 33.1 µM (active)

Task: Please tell me the measured AC50 for O=S(=O)(O)C(F)(F)C(F)(F)C(F)(F)C(F)(F)C(F)(F)C(F)(F)C(F)(F)C(F)(F)F ; system: frog Estrogen Receptor (ESR2), gene 100174814.
Output: 49.8 µM (active)

***
Task: Please tell me the measured AC50 for CC1(C)C(C=C(Cl)Cl)C1C(=O)OC(C#N)c1ccc(F)c(Oc2ccccc2)c1 (centres undefined) ; system: frog Estrogen Receptor (ESR2), gene 100174814.
Output: 27 µM (active)

====

- Read-out: Interleukin-1 alpha (IL1a), IL1A (gene 3552)
- assay: BSK_KF3CT_IL1a: BioMAP Diversity Plus: KF3CT Assay for Interleukin-1 alpha (IL1a) Biomarker Activity (AID 2283070)
- run parameters: primary human keratinocytes with fibroblasts; actives raise or lower the signal
Activity calls are given as the source filed them. How the source made its calls: active means hit-call score of the fitted dose curve at least 0.9, where 1 is the maximum; inactive means score below 0.9.
The categories you may choose from are true for active, false for inactive

# count of solved cases: 6
Task: Assay result, entry CC(C)N(C(=O)COc1nnc(C(F)(F)F)s1)c1ccc(F)cc1 — outcome?
Output: false

Task: Assay result, entry CNC(=O)Oc1ccccc1OC(C)C — outcome?
Output: true

Task: Assay result, entry COC(=O)c1ccccc1S(=O)(=O)NC(=O)N(C)c1nc(C)nc(OC)n1 — outcome?
Output: false

Task: Assay result, entry CCCN(CCC)c1c([N+](=O)[O-])cc(C(F)(F)F)cc1[N+](=O)[O-] — outcome?
Output: false

Task: Assay result, entry CCc1ccc(C(=O)NN(C(=O)c2cc(C)cc(C)c2)C(C)(C)C)cc1 — outcome?
Output: false

Task: Assay result, entry COP(=O)(OC)OC=C(Cl)Cl — outcome?
Output: false

***
Task: Assay result, entry O=C1c2ccccc2C(=O)N1SC(Cl)(Cl)Cl — outcome?
Output: false

Task: Assay result, entry COc1cc(OC)nc(NC(=O)NS(=O)(=O)c2cc(NC=O)ccc2C(=O)N(C)C)n1 — outcome?
Output: false

Task: Assay result, entry CNC(=O)Oc1cccc(N=CN(C)C)c1 — outcome?
Output: false

Task: Assay result, entry CNC(=O)/C=C(\C)OP(=O)(OC)OC — outcome?
Output: false

Task: Assay result, entry CC[C@H](C)[C@H]1O[C@]2(C=C[C@@H]1C)C[C@@H]1C[C@@H](C/C=C(\C)[C@@H](O[C@H]3C[C@H](OC)[C@@H](O[C@H]4C[C@H](OC)[C@@H](O)[C@H](C)O4)[C@H](C)O3)[C@@H](C)/C=C/C=C3\CO[C@@H]4[C@H](O)C(C)=C[C@@H](C(=O)O1)[C@]34O)O2 (tested in a mixture with another compound) — outcome?
Output: true

Task: Assay result, entry O=[N+]([O-])c1c(Cl)c(Cl)c(Cl)c(Cl)c1Cl — outcome?
Output: true

Task: Assay result, entry CC1(C)C(C=C(Cl)Cl)C1C(=O)OC(C#N)c1ccc(F)c(Oc2ccccc2)c1 (stereo not given) — outcome?
Output: false

Task: Assay result, entry COC(=O)c1ccccc1S(=O)(=O)NC(=O)Nc1nc(C)nc(OC)n1 — outcome?
Output: false

Task: Assay result, entry C#CCN1C(=O)COc2cc(F)c(N3C(=O)C4=C(CCCC4)C3=O)cc21 — outcome?
Output: false

Task: Assay result, entry CCC(C)Nc1c([N+](=O)[O-])cc(C(C)(C)C)cc1[N+](=O)[O-] (stereo not given) — outcome?
Output: false

Task: Assay result, entry O=C(Nc1ccccc1)Nc1cnns1 — outcome?
Output: false

Task: Assay result, entry OCCOc1ccccc1 — outcome?
Output: false

Task: Assay result, entry CC(C)(C)C(O)C(Oc1ccc(Cl)cc1)n1cncn1 (stereo not given) — outcome?
Output: false

Task: Assay result, entry CC(C)(C)C(O)/C(=C\c1ccc(Cl)cc1Cl)n1cncn1 (stereo not given) — outcome?
Output: false

Task: Assay result, entry O=C(O)COc1ccc(Cl)cc1Cl — outcome?
Output: false

Task: Assay result, entry ClC1C(Cl)C(Cl)C(Cl)C(Cl)C1Cl (stereo not given) — outcome?
Output: false

Task: Assay result, entry [2H]C1([2H])[n+]2ccccc2-c2cccc[n+]2C1([2H])[2H] — outcome?
Output: true

Task: Assay result, entry N#Cc1c(Cl)c(Cl)c(Cl)c(C#N)c1Cl — outcome?
Output: true

Task: Assay result, entry Clc1ccccc1-c1nnc(-c2ccccc2Cl)nn1 — outcome?
Output: true

Task: Assay result, entry CN1CSC(=S)N(C)C1 — outcome?
Output: false

Task: Assay result, entry CCOc1nc(NC)nc(NC(=O)NS(=O)(=O)c2ccccc2C(=O)OC)n1 — outcome?
Output: false
